TARGET_ENTITY: CK2 (Homo sapiens)
Sequence (P68400 whole entry): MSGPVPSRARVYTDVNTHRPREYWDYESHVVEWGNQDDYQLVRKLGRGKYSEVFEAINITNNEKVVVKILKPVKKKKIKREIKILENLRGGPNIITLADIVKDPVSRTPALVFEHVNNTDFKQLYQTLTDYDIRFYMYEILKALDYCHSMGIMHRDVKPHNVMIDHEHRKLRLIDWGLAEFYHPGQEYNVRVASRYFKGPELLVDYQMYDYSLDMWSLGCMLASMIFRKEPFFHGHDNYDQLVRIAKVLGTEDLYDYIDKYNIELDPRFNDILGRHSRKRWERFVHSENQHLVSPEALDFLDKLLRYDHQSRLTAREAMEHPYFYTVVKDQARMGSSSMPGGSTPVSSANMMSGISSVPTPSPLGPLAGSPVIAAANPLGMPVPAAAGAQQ
Sequence (P67870 whole entry partner): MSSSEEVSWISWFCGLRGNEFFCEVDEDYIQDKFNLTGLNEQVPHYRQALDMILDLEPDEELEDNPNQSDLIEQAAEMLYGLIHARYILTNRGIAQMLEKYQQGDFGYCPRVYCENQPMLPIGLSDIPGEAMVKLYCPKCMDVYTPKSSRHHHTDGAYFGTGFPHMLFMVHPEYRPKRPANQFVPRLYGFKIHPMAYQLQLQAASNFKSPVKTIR
PROPERTY_MEASURED: IC50

Data request, read-out IC50, for COc1cc2c(Nc3ccc(Cl)c(Cl)c3F)ncnc2cc1OC[C@@H]1C[C@@H]2CN(C)C[C@@H]2C1 [XL-647]
> 1000 nM

###

ASSAY_REMARKS: in vivo
MEASUREMENT_SETUP: female, monkey, po, 6 mg/kg
PROPERTY_MEASURED: AUC(0-t) (ng·h/mL)
Numbers only, in ng·h/mL.

Data request, read-out AUC(0-t), for COc1cc2c(Nc3ccc(Cl)c(Cl)c3F)ncnc2cc1OC[C@@H]1C[C@@H]2CN(C)C[C@@H]2C1 [XL-647]
1690

###

TARGET_ENTITY: Lck (Homo sapiens)
Sequence (P06239 225-509 limits assumed): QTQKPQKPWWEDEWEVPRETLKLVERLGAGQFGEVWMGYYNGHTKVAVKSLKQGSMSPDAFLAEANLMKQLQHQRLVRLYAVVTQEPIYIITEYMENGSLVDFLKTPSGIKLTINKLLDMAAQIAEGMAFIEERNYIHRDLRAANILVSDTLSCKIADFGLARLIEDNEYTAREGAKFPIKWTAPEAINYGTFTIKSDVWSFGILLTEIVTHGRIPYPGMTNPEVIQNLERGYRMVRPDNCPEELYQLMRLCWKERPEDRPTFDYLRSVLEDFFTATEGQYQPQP
PROPERTY_MEASURED: pIC50
Give bare numbers, as −log10 of the molar value.

Data request, read-out pIC50, for COc1cc2c(Nc3ccc(Cl)c(Cl)c3F)ncnc2cc1OC[C@@H]1C[C@@H]2CN(C)C[C@@H]2C1 [XL-647]
7.51

###

TARGET_ENTITY: Clk2 (Homo sapiens)
Sequence (P49760 whole entry, species assumed): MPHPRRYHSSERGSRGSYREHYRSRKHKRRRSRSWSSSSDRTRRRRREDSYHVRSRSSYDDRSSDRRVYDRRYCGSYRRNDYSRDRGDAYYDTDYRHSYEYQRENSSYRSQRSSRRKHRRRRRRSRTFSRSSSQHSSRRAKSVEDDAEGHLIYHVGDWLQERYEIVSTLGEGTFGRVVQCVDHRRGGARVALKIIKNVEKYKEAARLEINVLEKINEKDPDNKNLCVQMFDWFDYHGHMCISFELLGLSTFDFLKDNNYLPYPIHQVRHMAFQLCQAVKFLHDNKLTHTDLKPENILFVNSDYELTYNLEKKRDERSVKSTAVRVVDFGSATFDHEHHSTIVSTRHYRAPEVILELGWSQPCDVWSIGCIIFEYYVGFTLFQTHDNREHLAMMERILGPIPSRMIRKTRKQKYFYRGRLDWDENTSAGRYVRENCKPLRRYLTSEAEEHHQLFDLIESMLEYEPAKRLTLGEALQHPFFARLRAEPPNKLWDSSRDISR
ASSAY_REMARKS: In vitro kinase inhibition screen
Assay type: biochemical
pIC50: −log10 of the molar value.
PROPERTY_MEASURED: pIC50

Quick check: pIC50 on Clk2 (Homo sapiens), item COc1cc2c(Nc3ccc(Cl)c(Cl)c3F)ncnc2cc1OC[C@@H]1C[C@@H]2CN(C)C[C@@H]2C1 ?
< 5.00
